Data provenance is ChEMBL document CHEMBL1201862.

Tested on: SF-539
experimental-protocol: NCI tumour cell line growth inhibition, 48 h
Calls of active or inactive are those of the source. Cut-off read from the data, not from the text of the source: active = GI50 up to about 1.1 µM and inactive = higher.
Listing: GI50 of selected compounds

>  <compound>
COc1ccc(C(OCC2OC(n3ccc(Oc4c(F)c(F)c(F)c(F)c4F)nc3=O)CC2OP(OCCC#N)N(C(C)C)C(C)C)(c2ccccc2)c2ccc(OC)cc2)cc1 (centres undefined)

>  <GI50>
> 100 µM (inactive)

$$$$
>  <compound>
CC(=O)C(=C(c1ccccc1)c1ccccc1)c1ccccc1

>  <GI50>
> 100 µM (inactive)

$$$$
>  <compound>
COc1nc(NC2OC(COC(C)=O)C(OC(C)=O)C(OC(C)=O)C2OC(C)=O)c2c(OC(C)=O)cc(=O)oc2n1 (centres undefined)

>  <GI50>
> 100 µM (inactive)

$$$$
>  <compound>
CCC/C(Cl)=N\OC(=O)Nc1ccc(OC(F)(F)F)cc1

>  <GI50>
16.7 µM (inactive)

$$$$
>  <compound>
CC(=O)NC(C)c1ccc(/N=N/N2CCCC2)cc1 (centres undefined)

>  <GI50>
> 100 µM (inactive)

$$$$

Value of measured GI50 for the entry CC1(C)CC(=O)c2c(nc3c(ccc4ccccc43)c2-c2ccc(NC(=O)CCC(=O)Nc3ccc(-c4c5c(nc6c4ccc4ccccc46)CC(C)(C)CC5=O)cc3)cc2)C1 : > 100 µM (inactive)

Value of measured GI50 for the entry CCS(=O)(=O)Nc1ccc(Nc2c3ccccc3nc3ccccc23)c(OC)c1 : 0.295 µM (active)

Value of measured GI50 for the entry CN(C)CC1CCC/C1=N/OC(=O)c1ccccc1 (centres undefined) : > 100 µM (inactive)

Value of measured GI50 for the entry C(CCc1nnc2c(n1)CCCC2)Cc1nnc2c(n1)CCCC2 : > 100 µM (inactive)

* * *

Test system: 786-0
experimental-protocol: NCI tumour cell line growth inhibition, 48 h
Calls of active or inactive are those of the source. Cut-off read from the data, not from the text of the source: active = GI50 up to about 1.1 µM and inactive = higher.
# valid calls are active, inactive; nothing else

Worked examples, 3 compounds total:
>  <compound>
N#Cc1nc2ccccc2nc1N1CCN(c2ccc([N+](=O)[O-])cc2)CC1

>  <class>
inactive

$$$$
>  <compound>
NC1CC2C3CCC2C1C3=O (stereo unspecified)

>  <class>
inactive

$$$$
>  <compound>
CCOc1ccc(NCC2CC/C(=C\c3ccc(O)cc3)C2=O)cc1 (stereo unspecified)

>  <class>
inactive

$$$$

Hey, what did the test say about CC(SC(=S)N1CCOCC1)C(=O)Nc1nnc(-c2ccccc2)o1 (stereo unspecified) ?
inactive

Hey, what did the test say about CC1=C(N2CC2)C(=O)C(CO)=C(N2CC2)C1=O ?
active

Hey, what did the test say about CCOC(=O)/C(C(=O)Nc1cccc(C(F)(F)F)c1)=C(/N)N1CCOCC1 ?
inactive

Hey, what did the test say about O=C(O)c1c(-c2c3ccc(=O)cc-3oc3cc(O)ccc23)cc2ccccc2c1-c1ccccc1 ?
inactive

Hey, what did the test say about Cc1ccc(C)c(N2C/C(=N\NC(=O)CC#N)C(c3nc4ccccc4s3)C(=O)C2=O)c1 (stereo unspecified) ?
inactive

* * *

Tested on: RPMI-8226
experimental-protocol: NCI tumour cell line growth inhibition, 48 h
Calls of active or inactive are those of the source. Rule as the data show it: active = GI50 up to about 1.1 µM and inactive = higher.
property-name: GI50

Solved entries:
>  <compound>
COC1CCON1C(=O)c1ccccc1 (stereo unspecified)

>  <GI50>
> 10 µM (inactive)

$$$$
>  <compound>
CCCCCCCCCCCCCCCCCCOCC(O)COP(=O)(O)OCC1OC(n2cc(F)c(=O)[nH]c2=O)CC1O (stereo unspecified)

>  <GI50>
2.17 µM (inactive)

$$$$

Value of measured GI50 for the entry C[n+]1ccc2[nH]c3ccccc3c2c1 : > 100 µM (inactive)

* * *

Listing: GI50 of selected compounds
Test system: MDA-N
experimental-protocol: NCI tumour cell line growth inhibition, 48 h
The source made the active and inactive calls. Rule as the data show it: active = GI50 up to about 1.1 µM and inactive = higher.

Value of measured GI50 for the entry C(=N\c1cnc2ccccc2c1)/c1ccc2ccccc2n1 : > 100 µM (inactive)

* * *

Listing: GI50 of selected compounds
Tested on: NCI-H23
experimental-protocol: NCI tumour cell line growth inhibition, 48 h
The source made the active and inactive calls. Cut-off read from the data, not from the text of the source: active = GI50 up to about 1.1 µM and inactive = higher.

>  <compound>
COC(C)(C)[C@@H](O)[C@H]1C[C@H](C)[C@@]2(CC[C@]3(C)[C@@H]2CC[C@@H]2[C@@]4(C)CC[C@@H](OC(C)=O)C(C)(C)[C@@H]4C[C@@H](OC4OC(COC(C)=O)C(O)C(O)C4O)[C@]23C)O1 (stereo not given in full)

>  <GI50>
10.2 µM (inactive)

$$$$

Value of measured GI50 for the entry O=C(O)c1cc2c(ncc3c(=O)n(-c4ccccc4)[nH]c32)s1 : > 100 µM (inactive)

Value of measured GI50 for the entry CCN(CC)CC(=O)N1CCc2c([nH]c3ccccc23)C1c1cccnc1 (stereo not given) : > 100 µM (inactive)

Value of measured GI50 for the entry CNC1C(O)C(OC2C(N)CC(N)C(OC3OC(C(C)O)C(O)C(O)C3N)C2O)OCC1(C)O (stereo not given) : > 100 µM (inactive)

Value of measured GI50 for the entry COC(=O)N/N=C(\C)c1sc(-c2nc(C)c(/C(C)=N/NC(=O)OC)s2)nc1C : > 100 µM (inactive)

* * *

Test system: SW-620
experimental-protocol: NCI tumour cell line growth inhibition, 48 h
Activity calls are given as the source filed them. Rule as the data show it: active = GI50 up to about 1.1 µM and inactive = higher. Where a SMILES comes first, the peptide text is derived from it.
# valid calls are 1 = active, -1 = inactive; nothing else

Worked examples, 5 compounds total:
>  <compound>
Cc1ccc2nc(CN(CCO)CCO)cc(=O)n2c1

>  <class>
-1

$$$$
>  <compound>
CC(=O)C(=C(c1ccccc1)c1ccccc1)c1ccccc1

>  <class>
-1

$$$$
>  <compound>
CC(O)(c1ccccc1)c1nccc2ccccc12 (configuration not stated)

>  <class>
-1

$$$$
>  <compound>
CC1=C(C(=O)OC23CC4CC(CC(C4)C2)C3)C(c2ccccc2OC(F)F)C(C(=O)OC23CC4CC(CC(C4)C2)C3)=C(C)N1 (configuration not stated)

>  <class>
-1

$$$$
>  <compound>
O=C(c1ccccc1)c1nc2ccc(Cl)cc2cc1C(Br)Br

>  <class>
1

$$$$

Hey, what did the test say about CC1NC(=O)CNC(=O)CNC(=O)C(Cc2ccc(O)cc2)NC(=O)C(C(C)C)NC(=O)C(C)NC1=O (configuration not stated) (cyclo(GGAAVY); configuration not given here) ?
-1

Hey, what did the test say about CC(=O)Oc1ccccc1 ?
-1

* * *

Tested on: HCT-15
Listing: GI50 of selected compounds
Output spec: scalar in µM, unitless text.

Solved entries:
>  <compound>
CCOC(=O)N1c2c(c3ccccc3n2C(=O)OCC)C(=O)C(OC)N1C(=O)OCC (stereo unspecified)

>  <unit-spec>
µM

>  <GI50>
27.7

$$$$
>  <compound>
CCC(=O)/C(=C\I)c1ccccc1

>  <unit-spec>
µM

>  <GI50>
1.8

$$$$
>  <compound>
C/C(=N\NC(N)=S)c1ccc2c(c1)Sc1ccccc1O2

>  <unit-spec>
µM

>  <GI50>
0.593

$$$$
>  <compound>
COC1=CC(=O)c2nc3ccccc3c3ccnc1c23

>  <unit-spec>
µM

>  <GI50>
0.721

$$$$

Now look at this entry.
Value of measured GI50 for the entry C[C@@H](CC(O)C1OC1(C)C)[C@@H]1CC[C@]2(C)C3=CCC4C(C)(C)C(O)CC[C@]4(C)C3CCC12C (stereo partly specified) : 33.1

* * *

Tested on: NCI-H522
experimental-protocol: NCI tumour cell line growth inhibition, 48 h
Calls of active or inactive are those of the source. Rule as the data show it: active = GI50 up to about 1.1 µM and inactive = higher.
# valid calls are active, inactive; nothing else

Worked examples, 2 compounds total:
>  <compound>
COC(=O)C(CC1=C(O)Nc2ccccc2N1)/C(=N/NC(N)=O)C(=O)Nc1ccccc1C (stereo not given)

>  <class>
inactive

$$$$
>  <compound>
CCOC(=O)/C=C/[C@@H](CC)O[Si](C(C)C)(C(C)C)C(C)C

>  <class>
inactive

$$$$

Hey, what did the test say about C(=N\c1cnc2ccccc2c1)/c1ccc2ccccc2n1 ?
inactive

Hey, what did the test say about COC(CN(C)C(=S)Nc1cccc2ccccc12)OC ?
inactive

* * *

Listing: GI50 of selected molecules
Test system: ACHN
experimental-protocol: NCI tumour cell line growth inhibition, 48 h
Activity calls are given as the source filed them. Cut-off read from the data, not from the text of the source: active = GI50 up to about 1.1 µM and inactive = higher.

Solved entries:
>  <molecule>
CC(=O)O[C@H]1[C@H](O[C@H]2CC[C@]34C[C@]35CC[C@]3(C)[C@@H]([C@@]6(C)CC[C@@H](C(C)(C)O)O6)[C@@H](O)C[C@@]3(C)[C@@H]5C[C@H](O[C@@H]3O[C@H](CO)[C@@H](O)[C@H](O)[C@H]3O)[C@H]4C2(C)C)OC[C@@H](O)[C@@H]1O

>  <GI50>
> 100 µM (inactive)

$$$$
>  <molecule>
NC(=O)c1ncn(CCN2CCN(C(=O)NCCCCCCNC(=O)N3CCN(CCn4cnc(C(N)=O)c4N)CC3)CC2)c1N

>  <GI50>
> 100 µM (inactive)

$$$$
>  <molecule>
COC(=O)N/N=C(\C)c1sc(-c2nc(C)c(/C(C)=N/NC(=O)OC)s2)nc1C

>  <GI50>
> 100 µM (inactive)

$$$$

Now look at this entry.
Value of measured GI50 for the entry CN(C)c1ccccc1CN1CCCN(Cc2ccccc2N(C)C)C1c1ccncc1 : 24.8 µM (inactive)
